Values from paper PMC11882969

molecular target: hCB1 (Homo sapiens, UniProt P21554); experiment: bioSensAll ebBRET signaling profiling, hCB1; assay type: cell-based; design: host or cells: HEK293SL cells, transient PEI transfection; conditions: read-out: EC50 [95% CI]; hCB1 Gi2
Sequence (P21554 whole entry): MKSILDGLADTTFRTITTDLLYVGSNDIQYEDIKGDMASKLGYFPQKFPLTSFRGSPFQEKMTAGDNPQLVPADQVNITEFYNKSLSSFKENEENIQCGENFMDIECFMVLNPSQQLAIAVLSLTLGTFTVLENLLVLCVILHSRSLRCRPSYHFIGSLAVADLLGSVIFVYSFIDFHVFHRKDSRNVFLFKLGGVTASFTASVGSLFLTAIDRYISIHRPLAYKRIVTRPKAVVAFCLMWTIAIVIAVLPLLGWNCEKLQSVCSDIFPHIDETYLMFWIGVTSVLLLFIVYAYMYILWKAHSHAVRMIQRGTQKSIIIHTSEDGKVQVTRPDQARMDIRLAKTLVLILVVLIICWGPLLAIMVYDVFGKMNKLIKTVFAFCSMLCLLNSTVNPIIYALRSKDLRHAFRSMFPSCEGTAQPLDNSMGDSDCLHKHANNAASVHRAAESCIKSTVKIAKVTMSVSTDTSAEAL
metric: EC50 (nM)
# value in nM; strip the unit string

Data request: Indicate its recorded EC50; the compound in question is `COC(=O)[C@@](C)(NC(=O)c1cc(C)n(-c2cccc(C(F)(F)F)c2)n1)c1cccs1`
Data returned: 0.28

###

assay: Pharmacokinetics: plasma, brain, CSF; conditions: male, CD-1, mouse, plasma, ip, 0.2 mg/kg
metric: AUC(0-inf) (µg·h/mL)
# value in µg·h/mL; strip the unit string

{"columns": ["input smiles", "scale unit", "AUC(0-inf)"],
 "data": [
  ["COC(=O)[C@@](C)(NC(=O)c1cc(C)n(-c2cccc(C(F)(F)F)c2)n1)c1cccs1", "µg·h/mL", 0.0252]
]}

Could you now look at the following molecule, please?
Data request: Indicate its recorded AUC(0-inf); the molecule in question is `Cc1cc(C(=O)NC(C)(c2ccco2)c2ccco2)nn1-c1cccc(C(F)(F)F)c1`
Data returned: 0.0144

###

test: Pharmacokinetics: plasma, brain, CSF; settings: male, CD-1, mouse, plasma, intraperitoneal, 0.2 mg/kg
metric: concentration at 30 min (ng/mL)
# value in ng/mL; strip the unit string

{"columns": ["input smiles", "observed value"],
 "data": [
  ["COC(=O)[C@@](C)(NC(=O)c1cc(C)n(-c2cccc(C(F)(F)F)c2)n1)c1cccs1", 5.48]
]}

Could you now look at the following molecule, please?
Data request: Indicate its recorded concentration at 30 min; the molecule in question is `Cc1cc(C(=O)NC(C)(c2ccco2)c2ccco2)nn1-c1cccc(C(F)(F)F)c1`
Data returned: 4.54

###

biological target: hCB1 (Homo sapiens, UniProt P21554); assay: bioSensAll ebBRET signaling profiling, hCB1; format: cell-based; set-up: host or cells: HEK293SL cells, transient PEI transfection; conditions: Log [Compound] (M) -12.8861; single replicate values, FigS6a
metric: GoB hCB1

Data request: Indicate its recorded GoB hCB1; the compound in question is Cc1c(C(=O)OCC2CSc3ccccc3O2)cnn1Cc1ccccc1 (stereo not shown)
Data returned: -6.1521

###

molecular target: UniProt:P21554; assay: bioSensAll ebBRET signaling profiling, hCB1; type: cell-based; set-up: host or cells: HEK293SL cells, transient PEI transfection; details: Log [Compound] (M) cell empty; single replicate values, FigS6a
So basically, if Gi1 hCB1 comes in under -2 it's Fulfilled, and if it's -2 or more it's Not fulfilled.

Data request: is_below(Gi1 hCB1, -2) for `Cn1nc(-c2nnc(C(C)(C)Oc3ccc(Cl)cc3)o2)c2ccccc2c1=O` ?
Data returned: Fulfilled

Data request: is_below(Gi1 hCB1, -2) for Cc1nn(Cc2ccc(Cl)cc2)c(C)c1C(=O)OCC1CSc2ccccc2O1 (stereo not shown) ?
Data returned: Not fulfilled

Data request: is_below(Gi1 hCB1, -2) for `Cn1nc(-c2nnc(C(C)(C)Oc3ccc(C(F)(F)F)cc3)o2)c2ccccc2c1=O` ?
Data returned: Fulfilled

Data request: is_below(Gi1 hCB1, -2) for `Cc1nc(CC2CC2)oc1-c1nc(Cc2cc3c(cc2Br)OCO3)no1` ?
Data returned: Not fulfilled

Data request: is_below(Gi1 hCB1, -2) for `COC(=O)[C@](C)(NC(=O)c1cc(C)n(-c2cccc(C(F)(F)F)c2)n1)c1cccs1` ?
Data returned: Fulfilled

Data request: is_below(Gi1 hCB1, -2) for Cc1c(C(=O)OCC2CSc3ccccc3O2)cnn1Cc1ccccc1 (stereo not shown) ?
Data returned: Not fulfilled

Data request: is_below(Gi1 hCB1, -2) for `Brc1cc2c(cc1Cc1noc(-c3cnn(CC4CC4)c3)n1)OCO2` ?
Data returned: Not fulfilled
